All figures here come from patent US11198694B2.

- TARGET: UniProt:Q9BY41
- Sequence (Q9BY41 1-377): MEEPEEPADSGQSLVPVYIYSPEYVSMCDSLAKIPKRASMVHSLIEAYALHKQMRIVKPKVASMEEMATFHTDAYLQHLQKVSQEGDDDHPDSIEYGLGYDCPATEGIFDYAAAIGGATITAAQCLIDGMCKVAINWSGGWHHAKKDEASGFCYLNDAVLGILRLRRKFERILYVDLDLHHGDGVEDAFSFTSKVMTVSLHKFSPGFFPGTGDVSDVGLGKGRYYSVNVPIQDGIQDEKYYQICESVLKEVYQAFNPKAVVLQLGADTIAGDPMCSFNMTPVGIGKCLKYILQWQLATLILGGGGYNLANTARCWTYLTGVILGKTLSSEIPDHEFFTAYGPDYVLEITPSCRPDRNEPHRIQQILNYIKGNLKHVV
For each record, write down the corresponding IC50.

Exercise: Determine its reported IC50: CN1C(=O)[C@@H]2CN(Cc3c2c2cc(OCCN4CCOCC4)ccc2n3Cc2ccc(C(=O)NO)cc2)C1=O [(S)-21]
Key: 364 nM

Exercise: Report measured IC50; entry is CN1C(=O)[C@H]2CN(Cc3c2c2cc(OCCN4CCOCC4)ccc2n3Cc2ccc(C(=O)NO)cc2)C1=O [(R)-21]
Key: 1970 nM

Exercise: Please supply the value of reported IC50 for the item CN1CC(=O)N2CCc3c(c4ccccc4n3Cc3ccc(C(=O)NO)cc3)C2C1=O (stereo not drawn) [Compound 31b]
Key: 251 nM
